Attribution: PubChem BioAssay (Tox21)

ASSAY_PROTOCOL: qHTS assay to identify small molecule antagonists of the thyroid receptor (TR) signaling pathway (AID 743065); also: nearly all actives have a fitted effect of over 55% in size
ASSAY_CONDITIONS: GH3.TRE-Luc, T3-stimulated luciferase inhibition, 23.5 h; series mostly up to 70.3 µM
Records with an inconclusive call do not appear. Active and inactive are the calls of the source. Calls follow the shape of the dose curve; as a rule, active = well fitted inhibition curve with a large enough effect in the repeat runs; inconclusive = weak or mixed curves; inactive = no such curve, though single readings can be large or run the other way.
Possible outcomes: active, inactive

{"COMPOUND": "N#CCc1ccccc1", "DISCRETE_LABEL": "inactive"}
{"COMPOUND": "COP(=S)(OC)Oc1ccc([N+](=O)[O-])cc1Cl", "DISCRETE_LABEL": "inactive"}
{"COMPOUND": "CN1C[C@H](CNC(=O)OCc2ccccc2)C[C@@H]2c3cccc4c3c(cn4C)C[C@H]21", "DISCRETE_LABEL": "active"}
{"COMPOUND": "CCCCC(O)(Cn1cncn1)c1ccc(Cl)cc1Cl (stereo not drawn)", "DISCRETE_LABEL": "active"}
{"COMPOUND": "ClCc1ccccc1", "DISCRETE_LABEL": "inactive"}
{"COMPOUND": "c1ccoc1", "DISCRETE_LABEL": "inactive"}
{"COMPOUND": "Clc1cc(Cl)c(Cl)c(Cl)c1", "DISCRETE_LABEL": "inactive"}
{"COMPOUND": "O=C=Nc1ccc(Cl)cc1", "DISCRETE_LABEL": "inactive"}

---

ASSAY_PROTOCOL: qHTS assay for identifying genotoxic compounds that show differential cytotoxicity against isogenic chicken DT40 cell lines with known DNA damage response pathways - wild type cell line (AID 743012); also: nearly all actives have a fitted effect of over 60% in size
ASSAY_CONDITIONS: DT40 wild type chicken cells viability, CellTiter-Glo, 40 h; series mostly up to 68.4 µM
Excerpt: U.S. Tox21 Program National Center for Advancing Translational Sciences [NCATS] NIH Chemical Genomics Center [NCGC] U.S. Environmental Protection Agency [EPA] National Institutes of Environmental Health Sciences [NIEHS] National Toxicology Program [NTP] U.S. Food and Drug Administration [FDA] Tox21 Assay Overview: DNA repair pathways play a critical role in cellular homeostasis by repairing DNA damage induced by endogenous processes and xenobiotics. […]
Inconclusive results are not listed. The source made the active and inactive calls. The call rests on the fitted dose curve; in most records, active means well fitted cell-killing curve with a large enough effect in the repeat runs; inconclusive means weak or mixed curves, or effect the other way; inactive means no such curve, though single readings can be large or run the other way.
Possible outcomes: active, inactive

{"CPD_SMILES": "O=C(CBr)OCc1ccccc1", "DISCRETE_LABEL": "inactive"}
{"CPD_SMILES": "O=C1NCN(c2ccccc2)C12CCN(CCCOc1ccc(F)cc1)CC2", "DISCRETE_LABEL": "active"}
{"CPD_SMILES": "C/C(=C\\c1ccccc1)[N+](=O)[O-]", "DISCRETE_LABEL": "active"}
{"CPD_SMILES": "CO[C@@H]1[C@H](OC(=O)NC(=O)CCl)CC[C@]2(CO2)[C@H]1[C@@]1(C)O[C@@H]1CC=C(C)C", "DISCRETE_LABEL": "active"}
{"CPD_SMILES": "CC[C@H]1C[C@H]2[C@@H]3CCC4=CC(=O)CC[C@@H]4[C@H]3CC[C@]2(C)[C@H]1O", "DISCRETE_LABEL": "active"}
{"CPD_SMILES": "C=CCCl", "DISCRETE_LABEL": "inactive"}

---

ASSAY_PROTOCOL: qHTS RealTime-Glo MT Cell Viability Assay in HEK293 cells - 32 hour (AID 1224868); also: nearly all actives have a fitted effect of over 50% in size
ASSAY_CONDITIONS: RealTime-Glo luminescence; series mostly up to 76.8 µM
Inconclusive results are not listed. Calls of active or inactive are those of the source. The call rests on the fitted dose curve; in most records, active means well fitted cell-killing curve with a large enough effect in the repeat runs; inconclusive means weak or mixed curves, or effect the other way; inactive means flat fitted curve, though single readings scatter.
Possible outcomes: active, inactive

{"COMPOUND": "O=C(Nc1ccccc1)Nc1ccnc(Cl)c1", "DISCRETE_LABEL": "active"}
{"COMPOUND": "CCCCC(CC)COP(=O)(Oc1ccccc1)Oc1ccccc1 (stereo not given)", "DISCRETE_LABEL": "inactive"}
{"COMPOUND": "ClCc1cccc(Cl)c1", "DISCRETE_LABEL": "inactive"}
{"COMPOUND": "C=CC(=O)OC(C)(C)C", "DISCRETE_LABEL": "inactive"}
{"COMPOUND": "C=CCC1([C@H](C)CCC)C(=O)NC(=O)NC1=O", "DISCRETE_LABEL": "inactive"}
{"COMPOUND": "O=NN1CCNCC1", "DISCRETE_LABEL": "inactive"}
{"COMPOUND": "Sc1ccccc1Cl", "DISCRETE_LABEL": "inactive"}
{"COMPOUND": "Cc1ccc(N)cc1C", "DISCRETE_LABEL": "inactive"}
{"COMPOUND": "BrCCCCBr", "DISCRETE_LABEL": "inactive"}
{"COMPOUND": "CC(C)O.CC(C)O.OCCN(CCO)CCO.OCCN(CCO)CCO.[Ti]", "DISCRETE_LABEL": "inactive"}
{"COMPOUND": "CC(Cl)Cl", "DISCRETE_LABEL": "inactive"}
{"COMPOUND": "COC(N)=O", "DISCRETE_LABEL": "inactive"}
{"COMPOUND": "CC1CC(CC2CCC(N)C(C)C2)CCC1N (stereo not given)", "DISCRETE_LABEL": "active"}
{"COMPOUND": "Brc1ccccc1", "DISCRETE_LABEL": "inactive"}
{"COMPOUND": "CCCCNP(N)(N)=S", "DISCRETE_LABEL": "inactive"}
{"COMPOUND": "COc1c(C(C)(C)C)cc([N+](=O)[O-])c(C)c1[N+](=O)[O-]", "DISCRETE_LABEL": "inactive"}
{"COMPOUND": "C=CCCl", "DISCRETE_LABEL": "inactive"}
{"COMPOUND": "O=Cc1ccc(Cl)cc1Cl", "DISCRETE_LABEL": "inactive"}
{"COMPOUND": "O=S1(=O)OC(c2cc(Br)c(O)c(Br)c2)(c2cc(Br)c(O)c(Br)c2)c2ccccc21", "DISCRETE_LABEL": "inactive"}
{"COMPOUND": "COc1ccc(-c2ccccc2)cc1NNC(=O)OC(C)C", "DISCRETE_LABEL": "active"}
{"COMPOUND": "COc1nn(CSP(=S)(OC)OC)c(=O)s1", "DISCRETE_LABEL": "inactive"}
{"COMPOUND": "COC1=CC(=O)O[C@@H](CCc2ccccc2)C1", "DISCRETE_LABEL": "inactive"}
{"COMPOUND": "CNC(C)Cc1ccccc1OC (stereo not given)", "DISCRETE_LABEL": "inactive"}
{"COMPOUND": "CCC(Cl)CCl (stereo not given)", "DISCRETE_LABEL": "inactive"}
{"COMPOUND": "O=C(NC(=O)c1c(F)cccc1F)Nc1ccc(OC(F)(F)C(F)OC(F)(F)F)c(Cl)c1 (stereo not given)", "DISCRETE_LABEL": "inactive"}
{"COMPOUND": "O=C(Nc1ccccc1)Nc1cnns1", "DISCRETE_LABEL": "active"}
{"COMPOUND": "C[C@]12CC[C@H]3[C@@H](CCC4=CC(=O)CC[C@@H]43)[C@@H]1CC[C@@H]2OC(=O)CCC1CCCCC1", "DISCRETE_LABEL": "inactive"}
{"COMPOUND": "CCCC(=O)Cl", "DISCRETE_LABEL": "inactive"}
{"COMPOUND": "CC(c1ccc(O)cc1)(c1ccc(O)cc1)c1ccc(O)cc1", "DISCRETE_LABEL": "active"}
{"COMPOUND": "O=C(O)COc1ccc(Cl)cc1", "DISCRETE_LABEL": "inactive"}
{"COMPOUND": "CC(=O)CCC(C)=O", "DISCRETE_LABEL": "inactive"}
{"COMPOUND": "CC(=O)[C@H]1CC[C@H]2[C@@H]3CC[C@H]4C[C@](C)(O)CC[C@]4(C)[C@H]3CC[C@]12C", "DISCRETE_LABEL": "inactive"}
{"COMPOUND": "CCCCCCCCCCOC(=O)c1ccccc1C(=O)OCCCCCCCCCC", "DISCRETE_LABEL": "inactive"}
{"COMPOUND": "Clc1ccc(C2(Cn3cncn3)CC(Br)CO2)c(Cl)c1 (stereo not given)", "DISCRETE_LABEL": "active"}
{"COMPOUND": "Cn1cc[n+](C)c1 (tested in a mixture with another compound)", "DISCRETE_LABEL": "inactive"}
{"COMPOUND": "COCC(C)N(C(=O)CCl)c1c(C)csc1C (stereo not given)", "DISCRETE_LABEL": "inactive"}
{"COMPOUND": "CC(=O)c1cc2c(cc1C)C(C)(C)C(C)CC2(C)C (stereo not given)", "DISCRETE_LABEL": "inactive"}
{"COMPOUND": "O=C(NCc1cccnc1)Nc1ccc([N+](=O)[O-])cc1", "DISCRETE_LABEL": "active"}
{"COMPOUND": "CCOC(=O)COc1cc(-c2nn(C)c(OC(F)F)c2Cl)c(F)cc1Cl", "DISCRETE_LABEL": "inactive"}
{"COMPOUND": "COC(=O)c1cncn1C(C)c1ccccc1 (stereo not given)", "DISCRETE_LABEL": "inactive"}
